Provenance of the data: patent US20260049134A1

Entries annotated with measured ELISA Absorbance (405 nm-570 nm)
biological target: T1, ICAM1-Fc (R&D Systems) (human, UniProt P05362 28-480); test: ELISA on coated ICAM1-Fc, 150 ng IgG1; None 0.060
T1 construct: Bought; also called ICAM-1/CD54; not shown: Fc of the bought fusion protein
T1 sequence (P05362 28-480): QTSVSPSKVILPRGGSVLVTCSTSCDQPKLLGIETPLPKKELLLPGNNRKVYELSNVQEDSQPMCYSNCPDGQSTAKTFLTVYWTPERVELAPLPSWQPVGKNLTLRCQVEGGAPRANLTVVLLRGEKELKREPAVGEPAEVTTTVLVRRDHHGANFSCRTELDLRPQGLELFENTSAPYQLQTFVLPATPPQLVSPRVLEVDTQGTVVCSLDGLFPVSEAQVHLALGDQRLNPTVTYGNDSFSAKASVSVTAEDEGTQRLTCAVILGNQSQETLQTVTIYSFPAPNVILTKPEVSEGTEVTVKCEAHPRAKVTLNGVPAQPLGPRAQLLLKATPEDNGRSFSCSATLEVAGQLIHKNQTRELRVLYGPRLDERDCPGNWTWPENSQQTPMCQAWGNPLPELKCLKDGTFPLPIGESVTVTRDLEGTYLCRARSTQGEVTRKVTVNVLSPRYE

| BINDER | ELISA Absorbance (405 nm-570 nm) |
| --- | --- |
| HW-101 chimeric rabbit-human IgG1 LA/LA/PG (antibody, V domains shown, Fc-silenced (L234A/L235A/P329G) IgG1, lambda; Alexa Fluor 647-labeled in single-step flow cytometry; Cluster C-97) VH: QEQLVESGGRLVTPGTPLTLTCKASGFSLGKYDMSWVRQAPGKGLEWIGTIYAGSGSTWYASWAKGRFTISKTSTTVDLKMTSLTTEDTATYFCARDFLGVNSIWGPGTLVTISS VL: SFVLTQPASVQVNLGQTVSLTCTADTLSRSYASWYQQKPDQAPVLLIHRDTSRPSGVPDRFSGSNSGNTATLTISGAQAGDEADYYCATSDGSGSNFHFVFGGGTQLTVTG | 0.055 |
| HW-113 chimeric rabbit-human IgG1 LA/LA/PG (antibody, V domains shown, Fc-silenced (L234A/L235A/P329G) IgG1, lambda; Alexa Fluor 647-labeled in single-step flow cytometry) VH: QKQLVESGGGLVQPGGSLTLTCTVSGFSLNKYYMGWFRQAPGKGLEWIGVISRSGDTYYSSWAKGRFTISKASTTVDLRITSPTTEDTATYFCARDASSPGFHGDRLDLWGQGTLVTVSS VL: SFVLTQPASVQVNLGQTVSLTCTADTLSRSYASWYQQKPGQAPVLLIYRDTSRPSGVPDRFSGSSSGNTATLTISGAQAGDEADYYCATSDGIGSNYLWVFGGGTQLTVTG | 0.498 |
